system: Human fibroblast BJ; assay: Cytotoxicity MTT assay, BJ human fibroblast cells; assay type: cell-based; conditions: 48 hrs, ± SD from three independent experiments, NA: did not show activity at 30 µM
pIC50: −log10 of the molar value.

Molecule | pIC50
O=C(CC(c1cc2ccccc2s1)c1c[nH]c2ccccc12)c1ccc(Cl)cc1 (centres unmarked) | < 4.30
COc1cccc(C(=O)CC(c2cc3ccccc3o2)c2c[nH]c3cc(F)ccc23)c1 (centres unmarked) | < 4.30
O=C(CC(c1cc2ccccc2s1)c1c[nH]c2ccccc12)c1ccccc1 (centres unmarked) | < 4.30
O=C(CC(c1cc2ccccc2o1)c1c[nH]c2ccccc12)c1ccc(Br)cc1 (centres unmarked) | < 4.52
O=C(CC(c1cc2ccccc2o1)c1c[nH]c2cc(F)ccc12)c1ccc(Br)cc1 (centres unmarked) | < 4.52
